max response: recorded values
# measured_target: Peroxisome proliferator-activated receptor alpha (Homo sapiens) (UniProt Q07869)
# Sequence (Q07869 whole entry, looked up): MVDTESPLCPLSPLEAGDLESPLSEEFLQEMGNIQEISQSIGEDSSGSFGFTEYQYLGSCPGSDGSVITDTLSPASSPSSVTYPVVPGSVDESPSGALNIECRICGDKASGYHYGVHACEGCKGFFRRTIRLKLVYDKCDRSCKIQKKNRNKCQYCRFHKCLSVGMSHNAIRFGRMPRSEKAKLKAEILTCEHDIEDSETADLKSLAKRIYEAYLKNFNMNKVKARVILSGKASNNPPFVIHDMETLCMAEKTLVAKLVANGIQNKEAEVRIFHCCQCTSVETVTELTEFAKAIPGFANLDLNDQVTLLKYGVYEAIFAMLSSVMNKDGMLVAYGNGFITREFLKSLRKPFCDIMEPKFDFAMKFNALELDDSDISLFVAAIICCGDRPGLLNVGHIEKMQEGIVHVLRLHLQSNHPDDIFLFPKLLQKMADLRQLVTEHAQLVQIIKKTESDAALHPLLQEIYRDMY
# assay_name: qHTS assay for small molecule agonists of the peroxisome proliferator-activated receptor alpha (PPARalpha) signaling pathway (AID 651778); also: % of control where 0% means no effect
# assay_setup: PathHunter PPARalpha complementation, chemiluminescence, 6 h; stronger effect = higher value
The source made the active and inactive calls. Calls follow the shape of the dose curve; as a rule, active = well fitted activation curve with a large enough effect; inconclusive = small, poorly fitted or top-dose-only effect; inactive = flat fitted curve, though single readings scatter.

CCO; -0.991% (inactive)
C/C=C\c1ccc(OC)cc1; -5.71% (inactive)
CN(C)CCCCCCN(C)C; -5.54% (inactive)
c1ccccc1; -1.87% (inactive) [middle of 4 runs]

max response measured on O=C(O)CCCCCCCCC(=O)O = -0.446% (inactive)

---

# assay_name: NCATS anti-infectives library activity on HEK293 viability as a counter-qHTS vs the C. elegans viability qHTS (AID 1745854);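 also: HEK293 cells exposed to compounds for 24 hr before the viability read; % is scaled to controls: 0 for no effect and ±100 for the full control effect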
# assay_setup: HEK293 viability counter-screen; series mostly up to 41.8 µM
Records with an inconclusive call do not appear. Calls of active or inactive are those of the source. The call rests on the fitted dose curve; in most records, active means well fitted cell-killing curve with a large enough effect; inconclusive means small, poorly fitted or top-dose-only effect; inactive means flat fitted curve, though single readings scatter.
assay_readout: activity change, negative = cytotoxicity

Solved cases below.
CC(C)CN(C[C@@H](OP(=O)(O)O)[C@H](Cc1ccccc1)NC(=O)O[C@@H]1CCOC1)S(=O)(=O)c1ccc(N)cc1; inactive
[N-]=[N+]=NCc1cccc(/C(O)=C\C(=O)C(=O)O)c1; inactive
O=C(Nc1ccccc1)c1ccccc1O; inactive
CC(C)=CCC/C(C)=C/CC/C(C)=C/C=C/C(C)=C/C(=O)O; inactive
CC(=O)Cc1cc(=O)c2c(C)cc(O)c(C3OC(CO)C(O)C(O)C3O)c2o1 (stereo not drawn); inactive

activity change, negative = cytotoxicity measured on CC(C)CN(C[C@@H](O)[C@H](Cc1ccccc1)NC(=O)O[C@H]1CCOC1)S(=O)(=O)c1ccc(N)cc1 = inactive

activity change, negative = cytotoxicity measured on Nc1cc(F)ccc1NC(=O)/C=C/c1cnn(C/C=C/c2ccccc2)c1 = inactive

activity change, negative = cytotoxicity measured on CCCCC(=O)N(Cc1ccc(-c2ccccc2-c2nn[nH]n2)cc1)[C@H](C(=O)O)C(C)C = inactive

activity change, negative = cytotoxicity measured on CCCC[C@H](NC(=O)[C@@H]1[C@@H]2[C@H](CN1C(=O)[C@@H](NC(=O)NC1(CS(=O)(=O)C(C)(C)C)CCCCC1)C(C)(C)C)C2(C)C)C(=O)C(=O)NC1CC1 = inactive

activity change, negative = cytotoxicity measured on CC(C)c1cnn2c(NCc3ccccc3-n3cccn3)nc(OC3CCCNC3)nc12 (stereo not drawn) = inactive

activity change, negative = cytotoxicity measured on O=C1CC(c2ccccc2)Oc2ccccc21 (stereo not drawn) = inactive

---

# measured_target: Rap guanine nucleotide exchange factor 3 (Homo sapiens)
# assay_name: Confirmatory qHTS for agonist of cAMP-regulated guanine nucleotide exchange factor 3 (EPAC1) (AID 1645881); also: nearly all actives have a fitted effect of over 75% in size;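 as to activation: EPAC1 catalysed release of BODIPY-GDP from Rap1B seen as fluorescence loss; 100% = effect of cAMP agonist control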
# assay_setup: EPAC1 Rap1B BODIPY-GDP exchange fluorescence; series mostly up to 154 µM
Results filed as inconclusive are left out. Activity calls are given as the source filed them. Calls come from the whole dose curve; as a rule, active = well fitted activation curve with a large enough effect; inconclusive = small, poorly fitted or top-dose-only effect; inactive = no such curve, though single readings can be large or run the other way.
Write down one outcome, taken from true (active), false (inactive)

Answered examples (4):
CCOc1cc(/C=N/O)cc(Br)c1OCc1ccc(Cl)cc1; false
CCCCCN(C(=O)CCC(=O)OCC(=O)N1CCC(C)CC1)c1c(N)n(CCCC)c(=O)[nH]c1=O; false
O=C(NC1CCC(O)CC1)c1ccc(S(=O)(=O)NCc2ccco2)cc1 (stereo unspecified); false
O=C1c2ccccc2S(=O)(=O)c2cc(N3CCC(C(=O)N4CCCCC4)CC3)ccc21; true

Answer briefly: the call reported for Cc1ccc(C)c(S(=O)(=O)N2CCN(C(=O)/C=C/c3ccco3)CC2)c1 in this assay.
false

Answer briefly: the call reported for O=C(NCc1ccco1)c1c2c(nc3ccccc13)CCC2 in this assay.
false

Answer briefly: the call reported for CN(c1ccccc1)c1ccc(/C=C(/CCC(=O)O)c2nc3ccccc3s2)cc1[N+](=O)[O-] in this assay.
false

---

# measured_target: Nicotinamide N-methyltransferase (Homo sapiens) (UniProt P40261)
# Sequence (P40261 whole entry, looked up): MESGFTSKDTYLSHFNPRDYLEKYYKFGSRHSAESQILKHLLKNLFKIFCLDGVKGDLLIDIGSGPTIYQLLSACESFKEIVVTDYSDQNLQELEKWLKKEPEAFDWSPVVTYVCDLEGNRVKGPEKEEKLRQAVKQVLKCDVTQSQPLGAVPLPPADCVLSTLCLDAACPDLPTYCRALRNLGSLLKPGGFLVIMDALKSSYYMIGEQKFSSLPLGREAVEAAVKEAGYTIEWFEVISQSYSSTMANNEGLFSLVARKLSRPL
# assay_name: Confirmatory Screen for Target Class Profiling of Small Molecule Inhibitors of Methyltransferases (AID 1745852)
# assay_setup: MTase-Glo luminescence, SAH detection, recombinant enzyme; measured here: NNMT max response; stronger effect = lower value
Strictly below -20% in activity: satisfied. Otherwise: not satisfied.

Is activity strictly under -20% for the entry CC(C)CCn1c(=O)c2ccccc2n2c(CCC(=O)N3CCN(c4ccccc4F)CC3)nnc12 ?
satisfied

Is activity strictly under -20% for the entry N#Cc1ccccc1-c1cc2c(ccn2Cc2ccncc2)c(N2CCOCC2)n1 ?
not satisfied

Is activity strictly under -20% for the entry Cc1nc2cccnc2n1CC1CCCN(S(=O)(=O)c2ccc3c(c2)OCCO3)C1 (stereo not given) ?
not satisfied

Is activity strictly under -20% for the entry COc1ccc2cc(CNc3ccc(C)cc3)c(=O)n(CC(=O)Nc3cccc(C(F)(F)F)c3)c2c1 ?
not satisfied

Is activity strictly under -20% for the entry CCOc1cc(OCC)c2c(-c3ccccc3)cc(=O)oc2c1 ?
satisfied

Is activity strictly under -20% for the entry Cc1cnc(CCNC(=O)c2n[nH]c(=O)c3ccccc23)n1C1CCCCC1 ?
not satisfied

---

# measured_target: Rap guanine nucleotide exchange factor 3 (Homo sapiens)
# assay_name: Counterscreen qHTS for agonist of cAMP-regulated guanine nucleotide exchange factor 3 (EPAC1) (AID 1645889); also: % of control where 0% means no effect; nearly all actives have a fitted effect of over 40% in size
# assay_setup: EPAC1 Rap1B-BODIPY-GDP exchange, fluorescence; series mostly up to 154 µM
Records with an inconclusive call do not appear. Active and inactive are the calls of the source. The call rests on the fitted dose curve; in most records, active means well fitted activation curve with a large enough effect; inconclusive means small, poorly fitted or top-dose-only effect, or another doubt; inactive means no such curve, though single readings can be large or run the other way.
assay_readout: activation

Solved cases below.
COc1cc(/C=C2\SC(=Nc3ccccc3)N(CCc3c[nH]c4ccccc34)C2=O)ccc1OC(C)C(=O)O (stereo unspecified); inactive
CCCCC[C@H](C)N1C[C@@H](COCc2ccccc2)Oc2cc(N3CC[C@@H](O)C3)ccc2S1(=O)=O; 5.17% [at 30.8 µM] (inactive)
CCOC(=O)C(C(C)C)C(N)Cc1ccc(F)cc1 (stereo unspecified); inactive
O=S(=O)(NCC1(N2CCOCC2)CCCCC1)c1ccc(Cl)cc1C(F)(F)F; inactive
Cc1[nH]c(=O)nc(SCc2cccc(Cl)c2)c1C#N; inactive

activation measured on O=S(=O)(NCCC1=CCCCC1)c1ccc(OC(F)(F)F)cc1 = 3.2% [at 30.8 µM] (inactive)

activation measured on O=c1ccc(-c2ccccc2)nn1Cc1ccc(F)cc1Cl = inactive

activation measured on COC(=O)c1ccc2nc(-c3ccc(F)cc3)c(Cc3cccc(F)c3)n2c1 = inactive

---

# measured_target: Rap guanine nucleotide exchange factor 4 (Homo sapiens) (UniProt Q8WZA2)
# Sequence (Q8WZA2 whole entry, looked up): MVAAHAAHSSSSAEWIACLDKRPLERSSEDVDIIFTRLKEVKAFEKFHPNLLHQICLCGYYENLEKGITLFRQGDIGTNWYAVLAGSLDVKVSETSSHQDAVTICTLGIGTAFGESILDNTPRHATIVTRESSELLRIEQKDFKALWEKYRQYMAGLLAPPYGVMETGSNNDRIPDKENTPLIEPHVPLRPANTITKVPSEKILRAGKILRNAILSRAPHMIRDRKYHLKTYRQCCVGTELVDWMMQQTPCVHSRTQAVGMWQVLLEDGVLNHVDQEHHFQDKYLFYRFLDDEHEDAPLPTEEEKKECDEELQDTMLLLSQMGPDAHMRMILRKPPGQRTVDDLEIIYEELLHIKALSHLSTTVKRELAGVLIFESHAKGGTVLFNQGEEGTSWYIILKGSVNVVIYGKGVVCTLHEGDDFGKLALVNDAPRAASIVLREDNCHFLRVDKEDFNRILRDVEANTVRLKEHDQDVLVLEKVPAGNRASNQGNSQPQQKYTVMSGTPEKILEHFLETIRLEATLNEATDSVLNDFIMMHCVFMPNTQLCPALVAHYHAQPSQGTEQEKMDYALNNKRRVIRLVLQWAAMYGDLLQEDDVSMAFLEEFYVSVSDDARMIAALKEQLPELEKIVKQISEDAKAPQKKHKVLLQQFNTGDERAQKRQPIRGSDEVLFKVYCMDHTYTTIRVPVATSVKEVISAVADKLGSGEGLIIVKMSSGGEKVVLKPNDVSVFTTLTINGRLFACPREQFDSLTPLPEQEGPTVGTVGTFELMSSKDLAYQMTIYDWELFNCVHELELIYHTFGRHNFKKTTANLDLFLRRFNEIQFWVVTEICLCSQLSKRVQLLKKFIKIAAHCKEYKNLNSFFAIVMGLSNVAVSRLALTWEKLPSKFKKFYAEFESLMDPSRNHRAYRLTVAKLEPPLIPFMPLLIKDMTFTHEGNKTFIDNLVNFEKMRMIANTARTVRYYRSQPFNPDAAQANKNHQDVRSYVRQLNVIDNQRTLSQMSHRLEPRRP
# assay_name: Confirmatory qHTS for agonist of cAMP-regulated guanine nucleotide exchange factor 4 (EPAC2) (AID 1645884);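 also: nucleotide exchange releases bodipy-GDP from Rap1 and this lowers its fluorescence; nearly all actives have a fitted effect of over 65% in size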; as to activation: % is scaled to controls: 0 for no effect and ±100 for the full control effect
# assay_setup: EPAC2 GEF activity, Rap1B-BODIPY-GDP fluorescence; series mostly up to 154 µM
Results filed as inconclusive are left out. Activity calls are given as the source filed them. Calls come from the whole dose curve; as a rule, active = well fitted activation curve with a large enough effect; inconclusive = small, poorly fitted or top-dose-only effect; inactive = no such curve, though single readings can be large or run the other way.
assay_readout: activation

Solved cases below.
Cc1ccc(C(C)C)c(OCc2ccc(C(=O)N/N=C/c3ccc(O)c(O)c3)cc2)c1; inactive
COc1ccc(C2CC(=O)c3ccccc3O2)cc1 (stereo unspecified); inactive
CC1Sc2ccc(C#N)cc2N(Cc2cccc(C(F)(F)F)c2)C1=O (stereo unspecified); inactive
CCN(CC(=O)Nc1ccccc1C(=O)NC1CC1)Cc1cccs1; inactive
CCOC(=O)CC1C(=O)NCCN1C(=O)c1cccc(C(F)(F)F)c1 (stereo unspecified); inactive

activation measured on Cc1cc(NC(=O)CS(=O)(=O)c2cn(Cc3cccc(Br)c3)c3ccccc23)no1 = inactive

activation measured on Cc1cc(Br)ccc1-n1[nH]c(C)c(C=Nc2cccc3nsnc23)c1=O = inactive

activation measured on CCOC1=C2[C@@H](CN(S(=O)(=O)c3ccc(C)cc3)[C@H]2c2ccccc2Cl)[C@H]2C(=O)NC(=O)[C@H]2C1 = inactive

activation measured on COc1ccc(CC(=O)NCc2ccc3c(c2)CCN3C(=O)c2ccc(Cl)cc2)cc1OC = inactive

activation measured on CCC(CC)C(=O)N1c2ccccc2C(C)(c2ccccc2)CC1(C)C (stereo unspecified) = inactive

activation measured on COc1ccccc1N1CCN(CC(O)COc2ccc(C)cc2C(C)(C)C)CC1 (stereo unspecified) = inactive

activation measured on CCOC(=O)C1=C(C)NC(C)=C(C(=O)OCC)C1C(=O)OCC(=O)NCc1ccc(F)cc1 = inactive

activation measured on C[C@H]1CN([C@@H](C)CO)S(=O)(=O)c2ccc(Br)cc2O[C@@H]1CN(C)Cc1ccccc1 = inactive

activation measured on COc1ncc2nc(-c3ccccc3)c(=O)n(Cc3cccs3)c2n1 = inactive

---

Potency: recorded values
# measured_target: Rap guanine nucleotide exchange factor 4 (Homo sapiens)
# assay_name: Confirmatory qHTS for agonist of cAMP-regulated guanine nucleotide exchange factor 4 (EPAC2) (AID 1645884);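 also: nucleotide exchange releases bodipy-GDP from Rap1 and this lowers its fluorescence; nearly all actives have a fitted effect of over 65% in size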; also: potency is read from the fitted curve at half-maximal effect; as to activation: % is scaled to controls: 0 for no effect and ±100 for the full control effect
# assay_setup: EPAC2 GEF activity, Rap1B-BODIPY-GDP fluorescence; series mostly up to 154 µM
Results filed as inconclusive are left out. Activity calls are given as the source filed them. Calls follow the shape of the dose curve; as a rule, active = well fitted activation curve with a large enough effect; inconclusive = small, poorly fitted or top-dose-only effect; inactive = no such curve, though single readings can be large or run the other way.

Solved cases below.
CCOc1ccc(/C=C2\SC(=S)N(NS(=O)(=O)c3ccccc3)C2=O)cc1OC; 112 µM (active)
COc1ccc2c3c(cccc13)C(=O)CC2; 112 µM (active)
CCN(CC)c1ccc2cc(-c3nc(-c4ccccc4)no3)c(=O)oc2c1; 31.6 µM (active)

Known value: Rap guanine nucleotide exchange factor 4 (Homo sapiens) Potency of the molecule Cc1cc2nc3c(=O)n(C4CCCCC4)c(=O)[nH]c3nc2cc1N equals 56.2 µM (active)

Known value: Rap guanine nucleotide exchange factor 4 (Homo sapiens) Potency of the molecule CN1/C(=C\C=C(/C#N)C(=O)Nc2ccc(Cl)cc2)C(C)(C)c2ccccc21 equals 100 µM (active)

Known value: Rap guanine nucleotide exchange factor 4 (Homo sapiens) Potency of the molecule COC(=O)C1=NN(c2ccc(C)cc2)C2(S1)SC(C(C)=O)=C(C)N2c1ccccc1 (stereo not given) equals 100 µM (active)

Known value: Rap guanine nucleotide exchange factor 4 (Homo sapiens) Potency of the molecule CCc1cccc(CC)c1N1C(=O)C2=C(SCCCS2)C1=O equals 112 µM (active)

Known value: Rap guanine nucleotide exchange factor 4 (Homo sapiens) Potency of the molecule CCOC(=O)c1c(CSc2ccccc2)n(C)c2cc(Br)c(OCC(O)CNC(CO)(CO)CO)cc12 (stereo not given) equals 89.1 µM (active)

Known value: Rap guanine nucleotide exchange factor 4 (Homo sapiens) Potency of the molecule COCCn1c2nc(=O)n(-c3ccccc3)c(=O)c-2nc2ccccc21 equals 100 µM (active)

Known value: Rap guanine nucleotide exchange factor 4 (Homo sapiens) Potency of the molecule CCN(CC)c1ccc2cc(C(=O)Nc3ccccn3)c(=O)oc2c1 equals 100 µM (active)

Data credit: PubChem BioAssay (NCATS)
